- tested_target: T1, rat IL-17A (rat, UniProt Q61453 18-150, limits assumed)
- T1 construct: Purified recombinant protein in SPR
- T1 sequence (looked up): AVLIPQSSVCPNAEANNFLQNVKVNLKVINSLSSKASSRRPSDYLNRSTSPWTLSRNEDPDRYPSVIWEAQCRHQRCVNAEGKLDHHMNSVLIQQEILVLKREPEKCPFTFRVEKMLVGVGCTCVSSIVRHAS
- procedure_text: SPR (Biacore 3000), antibody captured by anti-Fc, antigen in solution;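 further: purified recombinant IL-17 antigens flowed over captured antibodies in HBS-EP buffer, global Langmuir one-to-one fit of association and dissociation phases, KD derived from koff over kon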
experimental_endpoint: kon (M⁻¹ s⁻¹)

>>> recorded_value("IL17-h10F7.11 (antibody, V domains shown, IgG; constant regions not specified; also called h10F7.11 (VH.1a-Vk.2a)) VH: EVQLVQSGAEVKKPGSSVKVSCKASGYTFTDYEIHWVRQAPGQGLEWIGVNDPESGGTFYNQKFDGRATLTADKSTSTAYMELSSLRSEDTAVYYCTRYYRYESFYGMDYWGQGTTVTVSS VL: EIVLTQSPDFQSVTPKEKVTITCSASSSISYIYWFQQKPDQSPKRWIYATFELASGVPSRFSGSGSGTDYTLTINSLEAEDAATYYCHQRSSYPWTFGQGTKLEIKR")
177000

Attribution: patent US20140348834A1
